Provenance of the data: PubChem BioAssay (NCI)

# Tested on: HCT-15 colon
# test-name: NCI-60 one-dose screen, 48 h (100 = growth as untreated, 0 = no growth, -100 = all killed)
# conditions-used: 10 µM unless noted
# Method: Growth inhibition of the HCT-15 human tumor cell line is measured as a screen for anti-cancer activity. Cells are grown in 96 well plates and exposed to the test compound for 48 hours. Compounds are tested at a single concentration, which is 10^-5 M for most compounds. The reported endpoint is percent growth (GI% or GIPRCNT), where numbers from 0 - 100% represent growth inhibition, and numbers from -100% - 0 represent cell death. For example, a value of 40 represents 60% growth inhibition. […]
The panel holds about 83,000 compounds, 20% with a hit somewhere; the sample as a whole holds those more often.
Listing: growth of selected compounds
measured-property: growth (%)

compound: CCN(CC)CCCCCCCCNc1c2ccc(Cl)cc2nc2ccc(OC)cc12
experimental-result: -39

compound: Clc1ccc(-c2cnc3c(-c4ccnc(N5CCNCC5)c4)cnn3c2)cc1
experimental-result: -22.9

compound: CCN(CC)CC(=O)Nc1c(C)ccc(N)c1C
experimental-result: 97.1

compound: C[N+](C)(C)CCCCCCCCCC[N+](C)(C)C
experimental-result: 107

compound: COC(=O)OC1C(O[C@H]2C[C@H]3[C@@H]4CC=C5C[C@@H](O)CC[C@]5(C)[C@H]4CC[C@]3(C)[C@H]2[C@H](C)C(=O)CCC(C)C)OCC(O)C1OC1OCC(O)C(O)C1OC(=O)c1ccc(OC)cc1 (some centres not stated)
experimental-result: -40.9

compound: O=C(O)C(CCc1ccccc1)NCc1ccccc1 (configuration not stated)
experimental-result: 99.2

compound: Cc1ccc(Nc2cc(Cl)c([N+](=O)[O-])cc2[N+](=O)[O-])cc1
experimental-result: 16.8

compound: O=C(CSc1nc2c(n1Nc1ccccc1)-c1ccccc1SC2)Nc1nccs1
experimental-result: 87.5

compound: C[C@@H]1CC2C3CCC4=CC(=O)C=C[C@]4(C)[C@@]3(Cl)[C@@H](O)C[C@]2(C)[C@@]1(OC(=O)c1ccco1)C(=O)CCl (some centres not stated)
experimental-result: 79.7

compound: CCCCCCCCCCCCCCCC1=NC(C)(C)CN1C(C)C
experimental-result: -63.5

compound: CC(C)CC(=O)C(CCc1ccccn1)C(C)C (configuration not stated)
experimental-result: 101

compound: CC(C)c1cccc(C#N)c1
experimental-result: 113

compound: CCCCCCCC/C=C\CCCCCCCC(=O)OCCCCCC
experimental-result: 101

compound: Nc1c(Br)cc2c(c1Br)Cc1cc(Cl)ccc1-2
experimental-result: 109

compound: N/C(=C\C(=O)n1nc(-c2ccccc2)cc1N)c1ccccc1
experimental-result: 33.5

compound: CCN(CC)CCNC(=O)C(F)(F)C(F)(F)C(F)(F)F
experimental-result: 100

compound: O=C(Nc1ccc(Cl)cc1)c1cc(-c2ccc(Cl)cc2)c2sc(=O)[nH]c2n1
experimental-result: 7.94

compound: CS(=O)(=O)c1ccc(C(=O)Nc2ccc(Cl)c(-c3ccccn3)c2)c(Cl)c1
experimental-result: 22.7

compound: CSc1nc(N)c2[nH]c(-c3cc4ccccc4[nH]c3=O)nc2n1
experimental-result: 64.8

compound: O=C1C=CN2C(=O)CC=CC2[C@@H]1O (some centres not stated)
experimental-result: 138

compound: COc1ccccc1-[n+]1cc(-c2ccc(-c3ccccc3)cc2)n2c1CCCCC2
experimental-result: 66

compound: COc1cccc(N2CCN(c3ncnc4cc[nH]c34)CC2)c1
experimental-result: 83
